The reader will find reported normalized growth values listed item by item below.
# Assay Comment: chemical genetic growth profiling, strain panel (AID 1159580);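 also: tested at 20 µM; growth read once vehicle control cultures reached saturation at 30 °C; 1 = growth at the plate median or of vehicle wells; lower values mean less growth of the strain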
# Study Conditions: S. cerevisiae deletion strains, growth OD, locus YHR087W, strain rtc3, stronger effect = lower value
The whole screen tested about 5,500 compounds, of which about 2,000 (36%) were called active. About 18% were inconclusive and are not listed. The list shows a part of the results.
Answer using only a numeral; do not append any unit.

In: Need normalized growth, item O=C(NCCSCc1ccco1)c1ccc(Cl)cc1
Out: 1

In: Need normalized growth, item CSc1c(C#N)c(-c2cccs2)nn1C
Out: 0.898

***
In: Need normalized growth, item O=C(NNC(=S)Nc1ccc(F)cc1)c1ccccc1Cl
Out: 0.977
